Provenance of the data: ChEMBL document CHEMBL5442219

inhibition for assorted compounds
Target: Muscarinic acetylcholine receptor M3 (Homo sapiens) (UniProt P20309)
Sequence (P20309 whole entry, looked up): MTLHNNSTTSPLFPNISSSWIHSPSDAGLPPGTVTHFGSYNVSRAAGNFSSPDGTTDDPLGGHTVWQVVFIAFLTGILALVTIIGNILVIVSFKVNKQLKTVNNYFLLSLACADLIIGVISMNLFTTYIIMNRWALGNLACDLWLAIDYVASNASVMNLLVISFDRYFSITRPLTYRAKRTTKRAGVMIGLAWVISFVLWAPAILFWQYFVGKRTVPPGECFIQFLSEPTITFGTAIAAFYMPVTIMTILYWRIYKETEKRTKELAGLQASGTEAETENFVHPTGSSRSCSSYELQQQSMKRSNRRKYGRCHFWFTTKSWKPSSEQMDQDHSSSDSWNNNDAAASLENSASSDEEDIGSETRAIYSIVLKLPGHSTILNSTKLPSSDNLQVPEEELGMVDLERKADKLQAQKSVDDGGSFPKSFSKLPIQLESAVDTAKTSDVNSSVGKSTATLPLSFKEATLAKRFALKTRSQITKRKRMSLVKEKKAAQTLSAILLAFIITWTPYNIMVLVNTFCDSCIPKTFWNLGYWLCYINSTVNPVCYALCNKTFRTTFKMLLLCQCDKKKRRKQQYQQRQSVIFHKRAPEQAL
Conditions: Compound concentration 10 µM
Description: PDSP Primary Binding target: CHRM3 - Compounds are tested at 10 uM concentration, plate are incubated at room temperature in the dark for 90 minutes. Reaction are stopped by vacuum filtration onto 0.3% polyethyleneimine soaked filter mats using Filtermate harvester. Scintilation cocktail is then melted onto microwave-dried filters on a hot plate and the radio activity is counted in Microbia counter.
Give the value, in units of %, as a plain number.

>  <smilesRepr>
CC1=C2C[C@H]3[C@@H](CC=C4C[C@@H](O)CC[C@@]43C)[C@@H]2CC[C@]12O[C@@H]1C[C@H](C)CN[C@H]1[C@H]2C

>  <assaySystem>
Muscarinic acetylcholine receptor M3 (Homo sapiens) (UniProt P20309)

>  <inhibition, %>
-6.3

$$$$

Challenge: I'd like to know its inhibition. The compound in question is `CCCCCCCCCCCCC/C=C/[C@@H](O)[C@@H](N)COP(=O)(O)O`
Response given: 9.29

Challenge: I'd like to know its inhibition. The compound in question is `CCCNS(=O)(=O)Nc1ncnc(OCCOc2ncc(Br)cn2)c1-c1ccc(Br)cc1`
Response given: 20.8

Challenge: I'd like to know its inhibition. The compound in question is `CN(C)S(=O)(=O)c1ccc(NC(=S)N2CCC(C(O)(c3ccccc3)c3ccccc3)CC2)cc1`
Response given: -7.46

Challenge: I'd like to know its inhibition. The compound in question is `Cc1cc(C(=O)N2Cc3cnn(C)c3Nc3ccccc32)ccc1CNC(=O)N1CCC[C@H]1C(=S)N1CCCN(C)CC1`
Response given: 65.2

Challenge: I'd like to know its inhibition. The compound in question is `COc1ccc(NC(=O)c2ccc(-c3ccc(-c4noc(C)n4)cc3C)cc2)cc1OCCN(C)C`
Response given: 37.2

Challenge: I'd like to know its inhibition. The compound in question is `Cc1csc2c(N[C@@H](C)CN3CCN(S(=O)(=O)c4ccc(Cl)c(Cl)c4)CC3)ncnc12`
Response given: -6

====

Target: UniProtKB P41595
Sequence (P41595 whole entry): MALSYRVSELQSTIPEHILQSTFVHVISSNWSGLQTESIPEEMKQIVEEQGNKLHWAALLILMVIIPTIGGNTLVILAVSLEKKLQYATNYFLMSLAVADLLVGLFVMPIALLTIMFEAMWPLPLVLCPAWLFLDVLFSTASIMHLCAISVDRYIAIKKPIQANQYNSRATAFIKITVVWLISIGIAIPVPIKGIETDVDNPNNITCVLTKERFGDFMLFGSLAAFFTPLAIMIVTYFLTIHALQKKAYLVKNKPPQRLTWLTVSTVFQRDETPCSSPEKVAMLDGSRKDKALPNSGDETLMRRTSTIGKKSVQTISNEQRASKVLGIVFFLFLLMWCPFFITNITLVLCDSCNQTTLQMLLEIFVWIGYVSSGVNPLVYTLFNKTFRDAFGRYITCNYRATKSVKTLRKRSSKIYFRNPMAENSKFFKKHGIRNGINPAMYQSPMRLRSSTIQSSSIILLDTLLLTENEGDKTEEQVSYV
Settings: Compound concentration 10 µM
Description: PDSP Primary Binding target: HTR2B - Compounds are tested at 10 uM concentration, plate are incubated at room temperature in the dark for 90 minutes. Reaction are stopped by vacuum filtration onto 0.3% polyethyleneimine soaked filter mats using Filtermate harvester. Scintilation cocktail is then melted onto microwave-dried filters on a hot plate and the radio activity is counted in Microbia counter.
inhibition for assorted compounds

Look over these answered cases.
>  <compound>
CC(C)NCC(O)COc1ccc(CCOCC2CC2)cc1 (stereo not drawn)

>  <assaySystem>
UniProtKB P41595

>  <inhibition>
32.1%

$$$$
>  <compound>
CCC(=O)NCC[C@@H]1CCc2ccc3c(c21)CCO3

>  <assaySystem>
UniProtKB P41595

>  <inhibition>
72%

$$$$
>  <compound>
N=C(N)SCCc1c[nH]cn1

>  <assaySystem>
UniProtKB P41595

>  <inhibition>
33%

$$$$
>  <compound>
C[C@@H](N)Cc1c[nH]cn1

>  <assaySystem>
UniProtKB P41595

>  <inhibition>
35.1%

$$$$
>  <compound>
CN1CCCC(n2nc(Cc3ccc(Cl)cc3)c3ccccc3c2=O)CC1 (stereo not drawn)

>  <assaySystem>
UniProtKB P41595

>  <inhibition>
89.5%

$$$$
>  <compound>
COc1cccc(-c2c(C)n(Cc3c(F)cccc3C(F)(F)F)c(=O)n(C[C@H](NCCCC(=O)O)c3ccccc3)c2=O)c1F

>  <assaySystem>
UniProtKB P41595

>  <inhibition>
-6.96%

$$$$

Challenge: I'd like to know its inhibition. The compound in question is `O=C(Nc1ccc(Cl)cc1)Nc1cccc(-c2cccc(N3CCCC3)n2)c1`
Response given: 10.6%

Challenge: I'd like to know its inhibition. The compound in question is `CSc1ccc(C(=O)N[C@@H]2CCCC[C@@H]2NC(=O)CNC(=O)c2cc(C(F)(F)F)ccc2NC(=O)NC(C)C)cc1`
Response given: 27.9%
